details: a range is the spread between reports
Parameter: melting point. Scope: all listed entries.

In [3]: df
Out[3]:
         molecule  recordedmeasurement
0  N#CCc1ccccc1Cl          23 to 24 °C

# return recorded melting point for input "CCc1cccc(C)c1"
-96 to -95.5 °C

# return recorded melting point for input "C1=CC2CCC1C2"
45 to 46 °C

# return recorded melting point for input CCC1(c2ccccc2)CCC(=O)NC1=O (configuration not stated)
84 to 87.5 °C

# return recorded melting point for input "CCCCCCC(C)C"
-80.3 to -80 °C

# return recorded melting point for input "Oc1cc(O)cc(O)c1"
218 °C

# return recorded melting point for input "N#CC(Cl)(Cl)Cl"
-44 to -42 °C

* * *

details: a range is the spread between reports
Parameter: melting point. Scope: all listed entries.

       recordsmiles  recordedmeasurement
0  CCCC(=O)OCCC(C)C      -73.2 to -73 °C

# return recorded melting point for input "Cc1cccc(N)n1"
41 to 43 °C

# return recorded melting point for input "Oc1cccc2ccccc12"
95 to 96 °C

# return recorded melting point for input "CC(=O)c1cccs1"
10 to 10.5 °C

# return recorded melting point for input "COc1c(F)c(F)c(F)c(F)c1F"
-38 to -37 °C

# return recorded melting point for input "Cc1ccc(C(=O)O)c(O)c1"
177 to 178 °C

# return recorded melting point for input "CCCCOC(=O)c1ccc(O)cc1"
68.5 to 72 °C

# return recorded melting point for input "CC(=O)CCC(C)=O"
-7 to -5.5 °C

# return recorded melting point for input "ON=C1CCCC1"
56 to 57.8 °C

# return recorded melting point for input "CC(=O)c1ccc(-c2ccccc2)cc1"
120 to 122 °C

# return recorded melting point for input "O=C(Oc1ccc([N+](=O)[O-])cc1)c1ccccc1"
139 to 143 °C

# return recorded melting point for input "C=Cc1ccc(N)cc1"
23.5 to 26 °C

# return recorded melting point for input "CC(=O)c1ccc(Cl)c(Cl)c1"
73 to 76 °C

# return recorded melting point for input "O=C=Nc1ccc([N+](=O)[O-])cc1"
57 to 58 °C

# return recorded melting point for input "Cn1c2ccccc2c2ccccc21"
89.3 to 91 °C

# return recorded melting point for input "CC(=O)OCCCCOC(C)=O"
12 to 13 °C

* * *

conditions: a range is the spread between reports
assayMetric: melting point

In [3]: df
Out[3]:
                                   compound  recordedmeasurement
0                   O=[N+]([O-])c1cccc(O)c1          94 to 98 °C
1  Cc1ccc(-c2cc(C(F)(F)F)nn2-c2ccc(S(N)(=O)=O)cc2)cc1               158 °C
2                           Cc1cccc(Cl)c1Cl            4 to 6 °C
3                   COc1ccccc1C(=O)c1ccccc1          37 to 41 °C

# return recorded melting point for input "CCCCP(CCCC)CCCC"
-65 to -60 °C

# return recorded melting point for input "Clc1c(Cl)c(Cl)c(Cl)c(Cl)c1Cl"
228 to 232 °C

Measured values drawn from a melting point compilation (Tetko et al.) for this set.
